Where these numbers come from: patent US20240016952A1

molecular target: T1, human transferrin receptor 1 (hTfR1) (human, UniProt P02786 89-760); assay: ELISA on plate-coated human TfR1, Fab-ASO300 conjugate
T1 construct: Recombinant human TfR1; also called huTfR1; Human TfR1
T1 sequence (P02786 89-760 limits assumed): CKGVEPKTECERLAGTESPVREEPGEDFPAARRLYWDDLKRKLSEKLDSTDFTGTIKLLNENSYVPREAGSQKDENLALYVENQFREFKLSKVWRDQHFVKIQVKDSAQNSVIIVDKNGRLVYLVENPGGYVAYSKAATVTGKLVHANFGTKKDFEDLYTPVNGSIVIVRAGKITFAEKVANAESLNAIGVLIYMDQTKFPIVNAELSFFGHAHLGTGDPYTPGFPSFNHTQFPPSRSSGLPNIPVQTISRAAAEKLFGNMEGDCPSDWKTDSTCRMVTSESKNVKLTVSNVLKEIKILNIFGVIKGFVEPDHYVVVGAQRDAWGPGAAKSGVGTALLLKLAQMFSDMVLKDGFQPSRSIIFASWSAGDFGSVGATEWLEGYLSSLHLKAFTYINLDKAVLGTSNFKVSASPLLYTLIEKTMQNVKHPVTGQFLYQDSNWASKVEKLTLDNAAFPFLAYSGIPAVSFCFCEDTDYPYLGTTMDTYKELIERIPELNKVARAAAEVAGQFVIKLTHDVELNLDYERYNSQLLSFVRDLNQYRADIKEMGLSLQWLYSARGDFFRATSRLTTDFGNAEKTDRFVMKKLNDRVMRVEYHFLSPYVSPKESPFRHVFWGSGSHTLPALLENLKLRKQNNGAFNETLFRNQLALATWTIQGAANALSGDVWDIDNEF
Quantity Kind: Conjugate binding affinity ELISA (nM)
One number for each entry, in nM.

I need Conjugate binding affinity ELISA for every entry listed below, if you could help.
1. humanized anti-TfR Fab 3A4 VH3/Vk4 conjugated to DMPK-targeting oligonucleotide ASO300 (Fab, V domains shown, Fab conjugated to oligonucleotide ASO300; chain and residue not stated, Fab-oligonucleotide conjugate; The protein chains are those of the unconjugated Fab) VH: EVQLVQSGSELKKPGASVKVSCTASGFNIKDDYMYWVRQPPGKGLEWIGWIDPENGDTEYASKFQDRVTVTADTSTNTAYMELSSLRSEDTAVYYCTLWLRRGLDYWGQGTLVTVSS VL: DIVMTQSPLSLPVTPGEPASISCRSSKSLLHSNGYTYLFWFQQRPGQSPRLLIYRMSNLASGVPDRFSGSGSGTDFTLKISRVEAEDVGVYYCMQHLEYPFTFGGGTKVEIKR
2. humanized anti-TfR Fab 5H12 VH5 (C33Y)/Vk4 conjugated to DMPK-targeting oligonucleotide ASO300 (Fab, V domains shown, Fab conjugated to oligonucleotide ASO300; chain and residue not stated, Fab-oligonucleotide conjugate; also called 5H12 (VH4-C33Y/Vk4) conjugate) VH: QVQLVQSGAEVKKPGASVKVSCKASGYSFTDYYINWVRQAPGQGLEWMGWIYPGSGNTRYSERFKGRVTITRDTSASTAYMELSSLRSEDTAVYYCAREDYYPYHGMDYWGQGTLVTVSS VL: DIVMTQSPDSLAVSLGERATINCRASESVDGYDNSFMHWYQQKPGQPPKLLIFRASNLESGVPDRFSGSGSGTDFTLTISSLQAEDVAVYYCQQSSEDPWTFGQGTKLEIKR
3. humanized anti-TfR Fab 3A4 VH3 (N54S)/Vk4 conjugated to DMPK-targeting oligonucleotide ASO300 (Fab, V domains shown, Fab conjugated to oligonucleotide ASO300; chain and residue not stated, Fab-oligonucleotide conjugate; The protein chains are those of the unconjugated Fab) VH: EVQLVQSGSELKKPGASVKVSCTASGFNIKDDYMYWVRQPPGKGLEWIGWIDPESGDTEYASKFQDRVTVTADTSTNTAYMELSSLRSEDTAVYYCTLWLRRGLDYWGQGTLVTVSS VL: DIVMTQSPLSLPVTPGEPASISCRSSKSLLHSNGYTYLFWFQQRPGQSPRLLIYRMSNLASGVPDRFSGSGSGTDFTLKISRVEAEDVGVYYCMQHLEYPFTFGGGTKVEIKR
4. humanized anti-TfR Fab 3M12 VH3/Vk2 conjugated to DMPK-targeting oligonucleotide ASO300 (Fab, V domains shown, Fab conjugated to oligonucleotide ASO300; chain and residue not stated, Fab-oligonucleotide conjugate; The protein chains are those of the unconjugated Fab) VH: QVQLQESGPGLVKPSQTLSLTCSVTGYSITSGYYWNWIRQPPGKGLEWMGYITFDGANNYNPSLKNRVSISRDTSKNQFSLKLSSVTAEDTATYYCTRSSYDYDVLDYWGQGTTVTVSS VL: DIQMTQSPSSLSASVGDRVTITCRASQDISNFLNWYQQKPGQPVKLLIYYTSRLHSGVPSRFSGSGSGTDFTLTISSLQPEDFATYFCQQGHTLPYTFGQGTKLEIKR
5. humanized anti-TfR Fab 5H12 VH5 (C33D)/Vk4 conjugated to DMPK-targeting oligonucleotide ASO300 (Fab, V domains shown, Fab conjugated to oligonucleotide ASO300; chain and residue not stated, Fab-oligonucleotide conjugate; The protein chains are those of the unconjugated Fab) VH: QVQLVQSGAEVKKPGASVKVSCKASGYSFTDYDINWVRQAPGQGLEWMGWIYPGSGNTRYSERFKGRVTITRDTSASTAYMELSSLRSEDTAVYYCAREDYYPYHGMDYWGQGTLVTVSS VL: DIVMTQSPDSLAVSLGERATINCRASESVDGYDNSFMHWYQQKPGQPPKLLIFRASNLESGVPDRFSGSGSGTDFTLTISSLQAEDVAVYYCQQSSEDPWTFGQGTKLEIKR
6. humanized anti-TfR Fab 5H12 VH5 (C33Y)/Vk3 conjugated to DMPK-targeting oligonucleotide ASO300 (Fab, V domains shown, Fab conjugated to oligonucleotide ASO300; chain and residue not stated, Fab-oligonucleotide conjugate; The protein chains are those of the unconjugated Fab) VH: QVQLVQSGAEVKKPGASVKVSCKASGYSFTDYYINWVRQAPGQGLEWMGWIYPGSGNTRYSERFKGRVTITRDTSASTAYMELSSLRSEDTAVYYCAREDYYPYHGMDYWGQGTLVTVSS VL: DIVLTQSPDSLAVSLGERATINCRASESVDGYDNSFMHWYQQKPGQPPKLLIFRASNLESGVPDRFSGSGSRTDFTLTISSLQAEDVAVYYCQQSSEDPWTFGQGTKLEIKR

[2.8, 23.7, 2.9, 2.2, 110, 33.4]
